The measurements presented in this section are drawn from ChEMBL document CHEMBL4507327.

Observed IC50, system Serine/threonine-protein kinase SIK2 (Homo sapiens).

{"molecule": "CN1C(=O)[C@@H](N2CCc3cn(Cc4ccccc4)nc3C2=O)COc2ccccc21", "IC50 [nM]": 1000}
{"molecule": "CN1C(=O)[C@@H](N2CCc3cn(CC4CCS(=O)(=O)CC4)nc3C2=O)COc2ccccc21 [TP-030n]", "IC50 [nM]": 1000}

----------
IC50 data for Protein kinase C beta type (Homo sapiens, UniProt P05771) follow.

{"molecule": "CN1C(=O)[C@@H](N2CCc3cn(Cc4ccccc4)nc3C2=O)COc2ccccc21", "target or system": "Protein kinase C beta type (Homo sapiens, UniProt P05771)", "IC50, nM": 1000}
{"molecule": "CN1C(=O)[C@@H](N2CCc3cn(CC4CCS(=O)(=O)CC4)nc3C2=O)COc2ccccc21 [TP-030n]", "target or system": "Protein kinase C beta type (Homo sapiens, UniProt P05771)", "IC50, nM": 1000}

----------
target or system: Mitogen-activated protein kinase kinase kinase 5 (Homo sapiens, UniProt Q99683)
Sequence (Q99683 whole entry): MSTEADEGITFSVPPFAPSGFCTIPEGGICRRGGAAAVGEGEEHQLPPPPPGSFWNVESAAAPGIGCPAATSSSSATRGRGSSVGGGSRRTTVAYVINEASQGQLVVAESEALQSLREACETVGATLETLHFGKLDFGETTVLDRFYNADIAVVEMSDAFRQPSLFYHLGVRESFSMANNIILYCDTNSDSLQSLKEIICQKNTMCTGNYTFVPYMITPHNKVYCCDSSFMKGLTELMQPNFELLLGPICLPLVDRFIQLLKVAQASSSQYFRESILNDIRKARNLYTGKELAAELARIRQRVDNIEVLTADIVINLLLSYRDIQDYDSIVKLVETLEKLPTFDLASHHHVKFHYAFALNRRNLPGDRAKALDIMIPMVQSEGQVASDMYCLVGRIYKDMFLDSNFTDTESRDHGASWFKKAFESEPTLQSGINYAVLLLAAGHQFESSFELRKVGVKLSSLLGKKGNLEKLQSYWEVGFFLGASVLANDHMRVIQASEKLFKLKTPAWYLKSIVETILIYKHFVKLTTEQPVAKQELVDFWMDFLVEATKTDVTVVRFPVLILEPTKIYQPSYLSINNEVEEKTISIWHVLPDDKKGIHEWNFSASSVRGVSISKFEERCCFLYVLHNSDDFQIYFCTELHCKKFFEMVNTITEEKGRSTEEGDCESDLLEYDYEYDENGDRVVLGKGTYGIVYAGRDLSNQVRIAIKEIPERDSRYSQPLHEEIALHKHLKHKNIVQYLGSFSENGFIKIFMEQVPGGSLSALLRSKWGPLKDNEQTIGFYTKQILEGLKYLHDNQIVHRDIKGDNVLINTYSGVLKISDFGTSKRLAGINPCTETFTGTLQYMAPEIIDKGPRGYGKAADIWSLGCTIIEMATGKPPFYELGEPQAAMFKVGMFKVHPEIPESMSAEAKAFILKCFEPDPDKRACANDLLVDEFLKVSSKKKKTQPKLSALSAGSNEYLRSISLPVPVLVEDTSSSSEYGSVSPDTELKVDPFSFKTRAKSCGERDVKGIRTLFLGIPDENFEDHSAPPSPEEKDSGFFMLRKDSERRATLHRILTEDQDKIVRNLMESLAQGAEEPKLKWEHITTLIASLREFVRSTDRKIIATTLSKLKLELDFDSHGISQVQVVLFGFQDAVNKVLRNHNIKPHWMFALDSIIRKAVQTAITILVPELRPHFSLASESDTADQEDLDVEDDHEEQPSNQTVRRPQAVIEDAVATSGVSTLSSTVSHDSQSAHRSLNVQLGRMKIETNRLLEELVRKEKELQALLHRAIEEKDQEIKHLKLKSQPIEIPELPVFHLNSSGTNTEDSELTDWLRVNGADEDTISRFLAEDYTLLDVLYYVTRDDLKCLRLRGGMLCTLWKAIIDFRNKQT
protocol text: ASK [MAP3K5(M3K5LGA1)] Takeda global kinase panel
Recorded measurements of IC50, one per entry

{"compound": "CN1C(=O)[C@@H](N2CCc3cn(CC4CCS(=O)(=O)CC4)nc3C2=O)COc2ccccc21 [TP-030n]", "target or system": "Mitogen-activated protein kinase kinase kinase 5 (Homo sapiens, UniProt Q99683)", "result unit": "nM", "IC50": 1000}
{"compound": "CN1C(=O)[C@@H](N2CCc3cn(Cc4ccccc4)nc3C2=O)COc2ccccc21", "target or system": "Mitogen-activated protein kinase kinase kinase 5 (Homo sapiens, UniProt Q99683)", "result unit": "nM", "IC50": 1000}

----------
target or system: Ankyrin repeat and protein kinase domain-containing protein 1 (Homo sapiens, UniProt Q8NFD2)
Sequence (Q8NFD2 whole entry, the tested form may be a part): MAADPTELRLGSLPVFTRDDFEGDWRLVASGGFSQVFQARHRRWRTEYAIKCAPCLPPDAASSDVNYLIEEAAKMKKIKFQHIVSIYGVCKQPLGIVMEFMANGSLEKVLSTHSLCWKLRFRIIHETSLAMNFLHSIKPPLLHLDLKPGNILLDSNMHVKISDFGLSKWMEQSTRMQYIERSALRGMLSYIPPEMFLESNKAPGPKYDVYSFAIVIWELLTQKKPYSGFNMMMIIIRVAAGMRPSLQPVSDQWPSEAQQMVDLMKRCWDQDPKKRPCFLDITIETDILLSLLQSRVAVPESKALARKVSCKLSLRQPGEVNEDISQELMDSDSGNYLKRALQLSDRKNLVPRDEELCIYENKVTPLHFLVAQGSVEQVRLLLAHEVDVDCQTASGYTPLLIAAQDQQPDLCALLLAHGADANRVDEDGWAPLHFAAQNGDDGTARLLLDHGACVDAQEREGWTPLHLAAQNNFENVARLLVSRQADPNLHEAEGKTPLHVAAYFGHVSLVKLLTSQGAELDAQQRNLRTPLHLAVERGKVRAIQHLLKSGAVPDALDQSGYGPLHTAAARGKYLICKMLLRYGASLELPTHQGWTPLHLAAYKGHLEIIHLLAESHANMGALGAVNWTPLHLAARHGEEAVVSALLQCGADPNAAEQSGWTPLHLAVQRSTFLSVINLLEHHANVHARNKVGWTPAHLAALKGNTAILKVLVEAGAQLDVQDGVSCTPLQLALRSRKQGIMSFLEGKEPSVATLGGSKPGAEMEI

{"molecule": "CN1C(=O)[C@@H](N2CCc3cn(Cc4ccccc4)nc3C2=O)COc2ccccc21", "IC50": "1000 nM"}
{"molecule": "CN1C(=O)[C@@H](N2CCc3cn(CC4CCS(=O)(=O)CC4)nc3C2=O)COc2ccccc21 [TP-030n]", "IC50": "1000 nM"}

----------
IC50 values recorded for Serine/threonine-protein kinase 3 (Homo sapiens)
readout: IC50 (µM)

{"molecule": "CN1C(=O)[C@@H](N2CCc3cn(CC4CCS(=O)(=O)CC4)nc3C2=O)COc2ccccc21 [TP-030n]", "target or system": "Serine/threonine-protein kinase 3 (Homo sapiens)", "result unit": "µM", "result number": 1}
{"molecule": "CN1C(=O)[C@@H](N2CCc3cn(Cc4ccccc4)nc3C2=O)COc2ccccc21", "target or system": "Serine/threonine-protein kinase 3 (Homo sapiens)", "result unit": "µM", "result number": 1}

----------
Recorded pIC50 by entry
target or system: Serine/threonine-protein kinase BRSK1 (Homo sapiens, UniProt Q8TDC3)
Sequence (Q8TDC3 whole entry): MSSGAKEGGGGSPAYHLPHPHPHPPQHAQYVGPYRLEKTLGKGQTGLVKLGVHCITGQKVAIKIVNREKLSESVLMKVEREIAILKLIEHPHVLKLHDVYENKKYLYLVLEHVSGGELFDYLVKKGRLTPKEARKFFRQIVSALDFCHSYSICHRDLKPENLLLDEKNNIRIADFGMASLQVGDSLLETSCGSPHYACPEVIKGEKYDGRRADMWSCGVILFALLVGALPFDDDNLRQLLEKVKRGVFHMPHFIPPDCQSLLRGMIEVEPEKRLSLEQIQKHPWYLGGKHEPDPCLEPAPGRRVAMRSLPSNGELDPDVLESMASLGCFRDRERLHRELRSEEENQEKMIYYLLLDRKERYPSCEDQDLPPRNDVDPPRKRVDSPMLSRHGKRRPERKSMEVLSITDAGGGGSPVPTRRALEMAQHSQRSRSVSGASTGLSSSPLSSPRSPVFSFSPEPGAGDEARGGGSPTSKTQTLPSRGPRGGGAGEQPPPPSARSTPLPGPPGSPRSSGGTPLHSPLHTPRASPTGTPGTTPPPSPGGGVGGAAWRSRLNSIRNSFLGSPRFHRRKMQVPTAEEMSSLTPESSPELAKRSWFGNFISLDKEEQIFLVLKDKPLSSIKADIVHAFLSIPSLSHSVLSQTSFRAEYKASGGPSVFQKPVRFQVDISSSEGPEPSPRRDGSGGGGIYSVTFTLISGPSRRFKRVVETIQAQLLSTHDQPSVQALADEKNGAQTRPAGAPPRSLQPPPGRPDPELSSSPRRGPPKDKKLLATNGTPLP
pIC50: −log10 of the molar value.

{"molecule": "CN1C(=O)[C@@H](N2CCc3cn(CC4CCS(=O)(=O)CC4)nc3C2=O)COc2ccccc21 [TP-030n]", "pIC50": 6.00}
{"molecule": "CN1C(=O)[C@@H](N2CCc3cn(Cc4ccccc4)nc3C2=O)COc2ccccc21", "pIC50": 6.00}
